Read-out: Early growth response protein 1 (EGR1) transcription factor, EGR1 (gene 1958)
Assay: LTEA_HepaRG_EGR1: Life Technologies and Expression Analysis (LTEA) Assay for Early growth response protein 1 (EGR1) transcription factor using HepaRG (AID 2283490)
Conditions: mRNA level, 48 h; actives raise or lower the signal
Description: LTEA_HepaRG is a cell based, multiplexed-readout assay that uses HepaRG, a human liver cell line, with measurements taken at 48 hours after chemical dosing on a 96-well plate.LTEA_HepaRG_EGR1 is one of 102 assay component(s) measured in the LTEA HepaRG cell culture assay. It is a marker of Cell proliferation, survival, death.Data from the assay component LTEA_HepaRG_EGR1 was analyzed into 1 endpoint. […]
Active and inactive are the calls of the source. Rule for the calls: active = hit-call score of the fitted dose curve at least 0.9, where 1 is the maximum; inactive = score below 0.9.
Outcomes: active, inactive

| compound | label |
| --- | --- |
| CC(=O)Oc1ccccc1C(=O)O | inactive |
| CCCCC(CC)COC(=O)CC(C(=O)OCC(CC)CCCC)S(=O)(=O)O (stereo not drawn) | active |
| Cc1c(C(=O)O)c(O)cc2c1C(=O)c1c(O)c([C@@H]3O[C@H](CO)[C@@H](O)[C@H](O)[C@H]3O)c(O)c(O)c1C2=O | inactive |
| CCCCc1ccc2c(n1)[C@@H](c1ccc(OC)cc1C[C@H](C)C(=O)O)[C@H](C(=O)O)[C@H]2c1ccc2c(c1)OCO2 | inactive |
| Cc1ccc(C(C)C)c(O)c1 | inactive |
| C=CCOC(=O)c1ccccc1C(=O)OCC=C | inactive |
| Cc1nc(-c2ccc3c(c2)CCN(CCC2CCC(NC(=O)/C=C/c4ccc(F)cc4)CC2)CC3)no1 (stereo not drawn) | inactive |
| Cc1cccc([N+](=O)[O-])c1C | inactive |
| Cc1ccc2ncccc2c1 | inactive |
| NCCO | inactive |
| COc1ccc(S(=O)(=O)N2C(=O)[C@@](c3ccccc3OC)(N3C[C@H](O)C[C@H]3C(=O)N(C)C)c3cc(Cl)ccc32)c(OC)c1 | active |
| Cc1cc(NC(=O)C(=O)O)cc(C)c1Oc1ccc(O)c2c1CCC2 | inactive |
| Nc1ccc2c(c1)C(=O)c1ccccc1C2=O | active |

# credit: PubChem BioAssay (EPA / NIEHS)
